// values below are reported max response
biological target: Peroxisome proliferator-activated receptor alpha (Homo sapiens); test: qHTS assay for small molecule agonists of the peroxisome proliferator-activated receptor alpha (PPARalpha) signaling pathway (AID 651778); conditions: PathHunter PPARalpha complementation, chemiluminescence, 6 h; active compounds read high; note: % of control where 0% means no effect
Active and inactive are the calls of the source. Calls come from the whole dose curve; as a rule, active = well fitted activation curve with a large enough effect; inconclusive = small, poorly fitted or top-dose-only effect; inactive = flat fitted curve, though single readings scatter.
Recorded endpoint: max response

1. COP(=S)(OC)Oc1ccc(Sc2ccc(OP(=S)(OC)OC)cc2)cc1 : 7.57% (inactive)
2. COP(=O)(OC)OC=C(Cl)Cl : -1.1% (inactive) [middle of 4 runs]
3. C[C@H]1C(=O)O[C@@H]2CCN3CC=C(COC(=O)[C@](C)(O)[C@]1(C)O)[C@H]23 : 0.361% (inactive)
4. O=C(NC(=O)c1c(F)cccc1F)Nc1cc(Cl)c(OC(F)(F)C(F)C(F)(F)F)cc1Cl (centres undefined) : 14.7% (inactive)

---

experiment: Drug repurposing screens with cells derived from glioblastoma tumor samples (AID 1345199); details: GBM patient neurospheres viability, ATP luminescence, 48 h; at 45.9 µM (top of the series); tumour line B; note: % is set by controls: 0 for no effect and ±100 for the full control effect; nearly all actives have a fitted effect of over 40% in size
Inconclusive results are not listed.
Could you mark each record yes (1) if its activity, negative = cell killing falls strictly under -10%, and no (0) if it equals or exceeds it?

1. CCC1(CC)C(=O)NC(=O)NC1=O : no (0)
2. C[C@@H]1CC[C@H]2[C@@H](C)C(=O)O[C@@H]3O[C@@]4(C)CC[C@@H]1[C@]32OO4 : yes (1)
3. CCC1(c2ccccc2)CCC(=O)NC1=O (stereo not drawn) : yes (1)
4. CC1=C2[C@H]3OC(=O)[C@@H](C)[C@@H]3CC[C@@]2(C)C=CC1=O : no (0)
5. CN1CCc2cc(Cl)c(O)cc2[C@H]2c3ccccc3CC[C@@H]21 : yes (1)
6. Cc1c(Cl)c(=O)oc2cc(OP(=O)(OCCCl)OCCCl)ccc12 : yes (1)
7. CCCCCCCCC(=O)NCc1ccc(O)c(OC)c1 : no (0)
8. CCN(CC)C(C)C(=O)c1ccccc1 (stereo not drawn) : no (0)
9. C[N+](C)(C)CCOC(=O)C(O)(c1ccccc1)c1ccccc1 : no (0)
10. CCNc1nc(Cl)nc(NCC)n1 : no (0)
11. C=CCOC(Cn1ccnc1)c1ccc(Cl)cc1Cl (stereo not drawn) : yes (1)
12. CN1C(=O)[C@@H](NC(=O)c2cc3ccccc3[nH]2)N=C(c2ccccc2)c2ccccc21 : no (0)
13. O=c1n(Cl)c(=O)n(Cl)c(=O)n1Cl : no (0)
14. C[N+]1(C)[C@@H]2CC[C@H]1CC(OC(=O)C(CO)c1ccccc1)C2 (stereo partly drawn) : no (0)
15. O=C(O)c1nn(Cc2ccc(Cl)cc2Cl)c2ccccc12 : yes (1)
16. CC(Cc1ccccc1)NCc1ccccc1Cl (stereo not drawn) : yes (1)
17. CC(C)(C)OC(=O)c1ncn2c1[C@@H]1CCCN1C(=O)c1c(Br)cccc1-2 : no (0)
18. NC(=O)OCCCc1ccccc1 : no (0)
19. CCCC(C)C1(CC)C(=O)N=C(S)NC1=O (stereo not drawn) : yes (1)
20. C#C[C@]1(O)CC[C@H]2[C@@H]3CCC4=CC(=O)CCC4=C3C=C[C@@]21CC : yes (1)
21. CCCC[N+]1(C)[C@@H]2CC(OC(=O)[C@H](CO)c3ccccc3)C[C@H]1[C@@H]1O[C@@H]12 (stereo partly drawn) : no (0)
22. C=CC[C@]1(O)CC[C@H]2[C@@H]3CCC4=CC(=O)CCC4=C3C=C[C@@]21C : yes (1)
23. CCS(=O)(=O)C(C)(C)S(=O)(=O)CC : no (0)
24. COP(=S)(OC)Oc1ccc(S(N)(=O)=O)cc1 : no (0)
25. NCc1cccnc1 : no (0)
26. C[C@]12CC[C@H]3[C@@H](CC=C4C[C@@H](O)CC[C@@]43C)[C@@H]1CC[C@@H]2O : yes (1)
27. CCOP(=S)(OCC)O/N=C(\C#N)c1ccccc1 : no (0)
28. CC(C)NCC(O)c1ccc(N)c(C#N)c1 (stereo not drawn) : yes (1)
29. CNC(C)Cc1ccccc1OC (stereo not drawn) : yes (1)
30. O=C(NC(=O)c1c(F)cccc1F)Nc1cc(Cl)c(OC(F)(F)C(F)C(F)(F)F)cc1Cl (stereo not drawn) : no (0)
31. Nc1ccc(N)cc1 : yes (1)
32. COc1ccc2c(C(=O)c3ccc(Cl)cc3)c(C)n(CC(=O)O)c2c1 : yes (1)
33. COP(=O)(OC)C(O)C(Cl)(Cl)Cl (stereo not drawn) : no (0)
34. CN1C(=O)CN=C(c2ccccc2)c2cc(Cl)ccc21 : no (0)
35. N#Cc1nn(-c2c(Cl)cc(C(F)(F)F)cc2Cl)c(N)c1S(=O)C(F)(F)F (stereo not drawn) : yes (1)
36. c1cc2c(c(N3CCNCC3)c1)OCCO2 : no (0)
37. CN1C(=O)CN=C(c2ccccc2)c2cc([N+](=O)[O-])ccc21 : no (0)
38. CCOC(=O)NC(C)(C)Cc1ccc(Cl)cc1 : no (0)
39. COC(=O)C1=CCCN(C)C1 : no (0)
40. C[C@]12CC[C@H](O)CC1=CC[C@@H]1[C@@H]2CC[C@]2(C)C(=O)CC[C@@H]12 : no (0)
41. C[C@H]1CNCCc2ccc(Cl)cc21 : yes (1)
42. O=C(O)CCCCCCNC1c2ccccc2CCc2ccccc21 : no (0)
43. Oc1ccc([C@H]2CNCc3c2ccc(O)c3O)cc1O : yes (1)
44. C[C@]12C=CC(=O)C=C1CC[C@@H]1[C@@H]2CC[C@@]2(C)[C@H]1CC[C@]2(C)O : no (0)
45. CCN(CC)Cc1nccn1-c1ccc([N+](=O)[O-])cc1C(=O)c1ccccc1Cl : yes (1)
46. CC[C@]1(O)CC[C@H]2[C@@H]3CCC4=CCCC[C@@H]4[C@H]3CC[C@@]21C : yes (1)
47. Oc1c(Br)cc(Br)cc1Br : no (0)
48. OC(O)C(Cl)(Cl)Cl : no (0)

---

biological target: Ubiquitin carboxyl-terminal hydrolase 1 (Homo sapiens) (UniProt O94782); experiment: Inhibitors of USP1/UAF1: Pilot qHTS (AID 504865); conditions: purified USP1/UAF1, Ub-rhodamine cleavage fluorescence; series mostly up to 114 µM;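 note: rhodamine fluorescence freed from ubiquitin-rhodamine substrate followed over time; top concentration of the series differs between compounds; % is set by controls: 0 for no effect and ±100 for the full control effect; nearly all actives have a fitted effect of over 35% in size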
Sequence (O94782 whole entry, looked up): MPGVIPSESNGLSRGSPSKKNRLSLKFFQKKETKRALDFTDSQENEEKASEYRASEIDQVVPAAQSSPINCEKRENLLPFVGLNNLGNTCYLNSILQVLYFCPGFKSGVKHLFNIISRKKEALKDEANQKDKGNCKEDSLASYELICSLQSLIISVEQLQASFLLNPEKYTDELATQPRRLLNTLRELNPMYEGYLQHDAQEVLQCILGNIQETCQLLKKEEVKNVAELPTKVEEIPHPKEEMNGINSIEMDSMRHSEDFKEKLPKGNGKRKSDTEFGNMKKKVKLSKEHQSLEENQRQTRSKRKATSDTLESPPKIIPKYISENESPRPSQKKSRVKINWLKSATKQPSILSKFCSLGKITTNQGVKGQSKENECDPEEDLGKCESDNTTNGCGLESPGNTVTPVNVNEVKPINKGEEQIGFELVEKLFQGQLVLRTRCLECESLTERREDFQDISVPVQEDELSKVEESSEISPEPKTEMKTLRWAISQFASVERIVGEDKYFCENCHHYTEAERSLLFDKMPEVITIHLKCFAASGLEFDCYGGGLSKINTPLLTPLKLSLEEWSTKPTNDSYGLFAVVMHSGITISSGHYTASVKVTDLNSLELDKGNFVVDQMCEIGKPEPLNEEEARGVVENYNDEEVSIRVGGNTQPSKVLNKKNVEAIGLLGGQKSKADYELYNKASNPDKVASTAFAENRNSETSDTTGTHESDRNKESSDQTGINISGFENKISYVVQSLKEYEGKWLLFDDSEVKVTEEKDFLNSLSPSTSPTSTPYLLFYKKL
Inconclusive results are not listed. Calls of active or inactive are those of the source. The call rests on the fitted dose curve; in most records, active means well fitted inhibition curve with a large enough effect; inconclusive means small, poorly fitted or top-dose-only effect; inactive means flat fitted curve, though single readings scatter.
Recorded endpoint: outcome

1) c1ccc2nc(N3CCNCC3)ccc2c1 : inactive
2) Clc1ccc(C(OCCN2CCCCC2)c2ccccc2)cc1 (stereo not drawn) : inactive
3) c1cc2c(c(N3CCNCC3)c1)OCCO2 : inactive

---

settings: Ebola virus entry assay, reporter ratio channel; Channel type: primary
Calls of active or inactive are those of the source.
Possible outcomes: true (active), false (inactive)

1. CC#C[C@]1(O)CC[C@H]2[C@@H]3C[C@H](C)C4=CC(=O)CC[C@]4(C)[C@H]3CC[C@@]21C : true
2. Fc1ccc(C(c2ccc(F)cc2)N2CCNCC2)cc1 : true
3. O=C(Nc1ccc(S(=O)(=O)N2CCOCC2)cc1)c1cc(Cl)ccc1NS(=O)(=O)c1ccc(Cl)s1 : true
4. CCCCOc1ccc(C(=O)CCN2CCCCC2)cc1 : true
5. CC(=O)OCC(=O)[C@@]12N=C(C)O[C@@H]1C[C@H]1[C@@H]3CCC4=CC(=O)C=C[C@]4(C)[C@H]3[C@@H](O)C[C@@]12C : false
6. CC(C)(C)CC(=O)OCC(=O)[C@@]1(O)CC[C@H]2[C@@H]3CCC4=CC(=O)C=C[C@]4(C)[C@H]3[C@@H](O)C[C@@]21C : true
7. CC(=O)OCC(=O)NCCCOc1cccc(CN2CCCCC2)c1 : false
8. Cc1ccc(C(C)OC(=O)C2(C)CCC(C(=O)O)C2(C)C)cc1 (centres undefined) : false
9. CCOC(=O)C(=O)CCc1ccccc1 : false

---

test: Cytotoxicity counterscreen for inhibitors of SARS-CoV-2 cell entry (AID 1645845); conditions: cell viability (SARS-CoV-2 entry assay cells); series mostly up to 57.1 µM; note: nearly all actives have a fitted effect of over 50% in size
Results filed as inconclusive are left out. Calls of active or inactive are those of the source. The call rests on the fitted dose curve.
Outcome codes: active, inactive

1) Cc1cc2nc3ccc(=[N+](C)C)cc-3sc2cc1N : active
2) Cc1ccc(N(CC2=NCCN2)c2cccc(O)c2)cc1 : inactive
3) N[C@H]1CN(c2c(F)cc3c(=O)c(C(=O)O)cn(C4C[C@@H]4F)c3c2Cl)CC12CC2 (stereo partly specified) : inactive
4) CCC(C)(C)c1ccc(CC(C)CN2C[C@@H](C)O[C@@H](C)C2)cc1 (stereo partly specified) : inactive
5) Cc1ccc(C(=O)Nc2ccc(S(=O)(=O)O)c3cc(S(=O)(=O)O)cc(S(=O)(=O)O)c23)cc1NC(=O)c1cccc(NC(=O)Nc2cccc(C(=O)Nc3cc(C(=O)Nc4ccc(S(=O)(=O)O)c5cc(S(=O)(=O)O)cc(S(=O)(=O)O)c45)ccc3C)c2)c1 : inactive
6) CCCCCC1Nc2cc(C(F)(F)F)c(S(N)(=O)=O)cc2S(=O)(=O)N1 (stereo unspecified) : inactive
7) CN1C2CCC(C)(C)C1CC(OC(=O)C(O)(c1cccs1)c1cccs1)C2 (stereo unspecified) : inactive
8) CN(C)[C@@H]1C(=O)C(C(=O)NCN2CCCC2)=C(O)[C@@]2(O)C(=O)C3=C(O)c4c(O)cccc4[C@@](C)(O)C3C[C@@H]12 (stereo partly specified) : inactive
9) O=C(O)COC(=O)Cc1ccccc1Nc1c(Cl)cccc1Cl : inactive
10) C=CC[N+]1([C@H]2C[C@H]3[C@@H]4CC[C@H]5C[C@H](OC(C)=O)[C@@H](N6CCCCC6)C[C@]5(C)[C@H]4CC[C@]3(C)[C@H]2OC(=O)CC)CCCCC1 : inactive
11) O=C(O)/C=C/c1ccc(Cn2ccnc2)cc1 : inactive
12) COc1cc(O)c(C(=O)c2ccccc2)cc1S(=O)(=O)O : inactive
13) CC(C)(C)c1ccc(C(=O)CCCN2CCC(OC(c3ccccc3)c3ccccc3)CC2)cc1 : inactive
14) CCC(=O)O[C@]1(C(=O)CCl)[C@@H](C)C[C@H]2[C@@H]3CCC4=CC(=O)C=C[C@]4(C)[C@@]3(F)[C@@H](O)C[C@@]21C : inactive
15) N[C@H](C(=O)O)[C@@H](O)c1ccc(O)c(O)c1 : inactive
16) COc1cc(N)c(Cl)cc1C(=O)NC1CCN(Cc2ccccc2)CC1 : inactive
17) C=CCOc1ccccc1OCC(O)CNC(C)C (stereo unspecified) : inactive
18) CO[C@@H]1[C@@H](O[C@@H]2O[C@H](C)[C@@H](O[C@H]3C[C@@](C)(O)[C@@H](O)[C@H](C)O3)[C@H](N(C)C)[C@H]2O)[C@@H](CC=O)C[C@@H](C)[C@@H](O[C@@H]2CC[C@H](N(C)C)[C@@H](C)O2)/C=C/C=C/C[C@@H](C)OC(=O)C[C@H]1OC(C)=O : inactive
19) CCN[C@H]1C[C@H](C)S(=O)(=O)c2sc(S(N)(=O)=O)cc21 : inactive
20) COC(=O)Nc1nc2ccc(Sc3ccccc3)cc2[nH]1 : inactive
21) CCC(=O)c1ccc(O)cc1 : inactive
22) Cc1cc(=O)oc2cc(O)ccc12 : inactive
23) CC(O)COc1ccccc1 (stereo unspecified) : inactive
24) CCCCOc1ccc(CC(=O)NO)cc1 : inactive
25) Cc1ccc(Nc2c(F)cccc2Cl)c(CC(=O)O)c1 : inactive
26) NC(=O)c1ncn([C@@H]2O[C@H](CO)[C@@H](O)[C@H]2O)c1N : inactive
27) O=C(O)Cc1ccccc1 : inactive
28) CCn1cc(C(=O)O)c(=O)c2cc(F)c(N3CCNCC3)nc21 : inactive
29) CCOc1cc(N)c(Cl)cc1C(=O)NCC1CN(Cc2ccc(F)cc2)CCO1 (stereo unspecified) : inactive
30) CC(C)c1cc2c(cc1S(=O)(=O)O)[C@@]1(C)CCC[C@@](C)(C(=O)O)[C@@H]1CC2 : inactive
31) O=C1CN2CCOC2(c2ccccc2Cl)c2cc(Cl)ccc2N1 (stereo unspecified) : inactive
32) N[C@@H](CSCCCO)C(=O)O : inactive
33) NS(=O)(=O)c1cc2c(cc1Cl)CN(C1CCCCC1)C2=O : inactive
34) CN1[C@@H]2CC[C@H]1CC(OC(=O)c1c[nH]c3ccccc13)C2 (stereo partly specified) : inactive
35) NS(=O)(=O)c1cc(C(=O)O)c(NCc2ccco2)cc1Cl : inactive
36) CCC(C(=O)OCCN1CCOC(c2ccccc2)C1C)c1ccccc1 (stereo unspecified) : inactive
37) CC(O)Cn1cnc2c1c(=O)n(C)c(=O)n2C (stereo unspecified) : inactive
38) O=C(CCCN1CCN(c2ccccn2)CC1)c1ccc(F)cc1 : inactive
39) O=c1ccc2ccccc2o1 : inactive
40) CCCc1ncc(C[n+]2ccccc2C)c(N)n1 : inactive
41) CCN1CCN(c2cc(-c3ccc(F)cc3)c3c(n2)CCCCCC3)CC1 : inactive
